Provide the reported Residual amounts of water-soluble pigments of each item.
Test: Residual amounts of fat-soluble and water-soluble pigments (HPLC)
Type: physicochemical
Settings: aconitate/citrate products, Table 4
Where a name gives a salt, the structure may show the parent alone.
Give bare numbers, in ppm.

Below, 4 compounds whose answers are already recorded.
CCCCOC(=O)CC(O)(CC(=O)OCCCC)C(=O)OCCCC [Comparative Example 4, tributyl citrate, reference compound] ... 2156
CCCCOC(=O)C=C(CC(=O)OCCCC)C(=O)OCCCC [Example 23, tributyl aconitate] ... 842
CCCCOC(=O)C=C(CC(=O)OCCCC)C(=O)OCCCC [Comparative Example 3, tributyl aconitate, reference compound] ... 2698
CCCCOC(=O)C=C(CC(=O)OCCCC)C(=O)OCCCC [Example 31, tributyl aconitate] ... 1715

Hey, quick one: what's Residual amounts of water-soluble pigments for each of these?
1. CCCCOC(=O)C=C(CC(=O)OCCCC)C(=O)OCCCC [Example 28, tributyl aconitate]
2. CCCCOC(=O)C=C(CC(=O)OCCCC)C(=O)OCCCC [Example 19, tributyl aconitate]
3. CCCCOC(=O)CC(O)(CC(=O)OCCCC)C(=O)OCCCC [Comparative Example 5, tributyl citrate, reference compound]

408
405
653

The measurements presented in this section are drawn from patent EP4715056A1.
